Tested on: Yap1 mRNA
assay: Antisense inhibition of human Yap1 in A-431 cells by cEt gapmers, single dose (Example 4, RTS4814)
Format: cell-based
particulars: Yap1 mRNA remaining as percent of untreated control; 3-10-3 cEt gapmers; A-431 cells; Table 36
Procedure: Modified oligonucleotides were designed to target a Yap1 nucleic acid and were tested for their effect on Yap1 mRNA level in vitro. The modified oligonucleotides were tested in a series of experiments that had similar culture conditions. […] After a treatment period of approximately 48 hours, RNA was isolated from the cells and Yap1 mRNA levels were measured by quantitative real-time RTPCR. […] Yap1 mRNA levels were normalized to total RNA content, as measured by RIBOGREEN®. […]
Strand notation (5' to 3'): a small letter for the sugar, then the base; units joined by * are phosphorothioate-linked, units joined directly phosphodiester-linked; [ ] holds rarer units or linkages, { } end groups; capitals alone tell only the bases. k = constrained ethyl (cEt); [5mC] = 5-methylcytosine; d = 2'-deoxy (DNA)
measurement type: YAP1 (% UTC)
Report the figure in % UTC without appending any unit label.

# YAP1 (% UTC) (substance: 1076438 (kT*kA*kG*dG*dA*dA*dG*dA*dA*dT*dA*dG*d[5mC]*kA*kT*k[5mC]; antisense) [compound 1076438] ) is 13

# YAP1 (% UTC) (substance: 1076086 (kA*kA*k[5mC]*dT*dA*dA*dT*dA*dG*dG*d[5mC]*d[5mC]*dA*kT*k[5mC]*kT; antisense) [compound 1076086] ) is 31

# YAP1 (% UTC) (substance: 1076374 (antisense kA*kT*kA*dA*d[5mC]*dG*dG*dA*dT*dA*dT*dA*d[5mC]*kA*kA*kT) [compound 1076374] ) is 15

# YAP1 (% UTC) (substance: 1075830 (kG*kA*kT*dG*dA*dA*d[5mC]*dA*d[5mC]*dT*d[5mC]*dA*dA*kT*kA*kG; antisense) [compound 1075830] ) is 12

# YAP1 (% UTC) (substance: 1075286 (antisense kA*kT*kT*dA*d[5mC]*dG*dG*dA*d[5mC]*dA*dG*dA*dA*kG*kT*kG) [compound 1075286] ) is 48

# YAP1 (% UTC) (substance: 1075990 (k[5mC]*kG*kT*dT*dA*dT*dT*dA*dT*dG*d[5mC]*dA*dG*k[5mC]*kA*kA; antisense) [compound 1075990] ) is 1

# YAP1 (% UTC) (substance: 1075478 (k[5mC]*kA*kT*dT*dT*dT*dG*dA*dA*d[5mC]*d[5mC]*d[5mC]*dT*kT*kT*kA; antisense) [compound 1075478] ) is 20

----------
System: Yap1 mRNA
assay: Antisense inhibition of human Yap1 in A-431 cells by cEt gapmers, single dose (Example 2, RTS4814)
Type: cell-based
particulars: Table 23; Yap1 mRNA as percent of untreated control; 3-10-3 cEt gapmers; single dose
Strand notation (5' to 3'): a small letter for the sugar, then the base; units joined by * are phosphorothioate-linked, units joined directly phosphodiester-linked; [ ] holds rarer units or linkages, { } end groups; capitals alone tell only the bases. k = constrained ethyl (cEt); [5mC] = 5-methylcytosine; d = 2'-deoxy (DNA)
For each record, write down the corresponding YAP1 (% UTC).

# YAP1 (% UTC) (substance: 1074601 (antisense k[5mC]*k[5mC]*kA*dG*d[5mC]*dT*dA*dA*d[5mC]*dT*d[5mC]*dA*dA*kA*kA*k[5mC]) [Compound 1074601] ) is 24 % UTC

# YAP1 (% UTC) (substance: 1076521 (antisense kA*k[5mC]*kT*dA*dA*dA*dG*dG*dA*dG*dT*d[5mC]*dA*kT*kG*kA) [Compound 1076521] ) is 67 % UTC

# YAP1 (% UTC) (substance: 1075433 (antisense kT*kT*kA*dA*d[5mC]*dT*dA*dA*d[5mC]*dT*dA*dA*dA*k[5mC]*kT*kG) [Compound 1075433] ) is 124 % UTC

# YAP1 (% UTC) (substance: 1074281 (antisense kG*kA*kG*dG*dG*dT*d[5mC]*dA*dA*dG*d[5mC]*d[5mC]*dT*kT*kG*kG) [Compound 1074281] ) is 91 % UTC

# YAP1 (% UTC) (substance: 1074825 (kA*k[5mC]*k[5mC]*dT*dG*dA*dG*d[5mC]*dA*d[5mC]*dT*d[5mC]*dA*kT*kT*kT; antisense) [Compound 1074825] ) is 36 % UTC

----------
Test system: Yap1 mRNA
assay: Antisense inhibition of human Yap1 in A-431 cells by cEt gapmers, single dose (Example 1, RTS4814)
Format: cell-based
particulars: Table 2; A-431 cells, free uptake, 2,000 nM, approximately 48 hours, RTS4814; Yap1 mRNA relative to untreated control cells
Strand notation (5' to 3'): a small letter for the sugar, then the base; units joined by * are phosphorothioate-linked, units joined directly phosphodiester-linked; [ ] holds rarer units or linkages, { } end groups; capitals alone tell only the bases. k = constrained ethyl (cEt); [5mC] = 5-methylcytosine; d = 2'-deoxy (DNA)
For each record, write down the corresponding YAP1 (% UTC).
Report the figure in % UTC without appending any unit label.

# YAP1 (% UTC) (substance: 715554 (kT*kA*kT*dT*d[5mC]*dA*dG*d[5mC]*dA*dG*d[5mC]*dT*dT*kA*kT*kA; antisense) [Compound 715554] ) is 93

# YAP1 (% UTC) (substance: 715572 (kT*k[5mC]*kA*dG*dA*dG*dA*dA*dG*dA*dA*dA*dG*kG*kT*kA; antisense) [Compound 715572] ) is 97

# YAP1 (% UTC) (substance: 715632 (antisense kA*kT*k[5mC]*d[5mC]*dA*dA*dT*dT*dA*dT*dG*dT*d[5mC]*k[5mC]*k[5mC]*kA) [Compound 715632] ) is 109

# YAP1 (% UTC) (substance: 715584 (kG*kG*kT*d[5mC]*dT*dG*dG*dA*dA*d[5mC]*dA*dG*dA*kT*kT*kA; antisense) [Compound 715584] ) is 96

# YAP1 (% UTC) (substance: 715578 (kT*kG*kG*d[5mC]*dA*dT*dT*d[5mC]*dA*d[5mC]*dA*dG*dA*kG*kT*kT; antisense) [Compound 715578] ) is 50

# YAP1 (% UTC) (substance: 715437 (antisense k[5mC]*kA*kT*dG*dG*d[5mC]*dA*dA*dA*dA*d[5mC]*dG*dA*kG*kG*kG) [Compound 715437] ) is 89

# YAP1 (% UTC) (substance: 715470 (antisense kT*k[5mC]*kT*dA*dG*d[5mC]*dT*dT*dG*dG*dT*dG*dG*k[5mC]*kA*kG) [Compound 715470] ) is 83

# YAP1 (% UTC) (substance: 715575 (k[5mC]*k[5mC]*kT*dT*dT*dA*d[5mC]*d[5mC]*dA*dA*dA*dA*d[5mC]*kG*kA*kG; antisense) [Compound 715575] ) is 134

# YAP1 (% UTC) (substance: 715473 (antisense kT*k[5mC]*kT*dT*dT*dA*dT*d[5mC]*dT*dA*dG*d[5mC]*dT*kT*kG*kG) [Compound 715473] ) is 32

# YAP1 (% UTC) (substance: 715512 (antisense kA*kG*kG*d[5mC]*dG*d[5mC]*dG*d[5mC]*dG*d[5mC]*dA*dT*dT*kG*kT*kG) [Compound 715512] ) is 97

# YAP1 (% UTC) (substance: 715617 (antisense kA*kA*kG*dA*d[5mC]*dG*dG*dA*dT*dA*dA*dA*dA*kA*kT*kT) [Compound 715617] ) is 98

# YAP1 (% UTC) (substance: 715494 (antisense kG*kA*kG*dG*dT*dG*d[5mC]*dT*dA*dG*d[5mC]*dT*dG*kG*kT*kG) [Compound 715494] ) is 46

# YAP1 (% UTC) (substance: 715491 (antisense kA*kA*k[5mC]*d[5mC]*dA*dA*d[5mC]*dT*dA*dT*dT*dA*d[5mC]*kT*kT*k[5mC]) [Compound 715491] ) is 71

# YAP1 (% UTC) (substance: 715506 (antisense kA*kA*kA*dT*dT*dG*dG*dT*dT*dT*dA*dT*dT*kG*kT*kA) [Compound 715506] ) is 112

# YAP1 (% UTC) (substance: 715530 (kA*kA*k[5mC]*d[5mC]*dT*dG*dG*dT*dT*dT*dG*dT*dT*kT*k[5mC]*k[5mC]; antisense) [Compound 715530] ) is 61

# YAP1 (% UTC) (substance: 715605 (antisense k[5mC]*kA*kT*dA*dG*d[5mC]*dA*d[5mC]*dA*dG*dA*dA*dT*kT*k[5mC]*k[5mC]) [Compound 715605] ) is 112

# YAP1 (% UTC) (substance: 715581 (kA*kA*kG*d[5mC]*d[5mC]*dT*dG*dT*d[5mC]*dT*dG*dG*dA*kA*kT*kA; antisense) [Compound 715581] ) is 106

# YAP1 (% UTC) (substance: 715425 (kG*kT*k[5mC]*d[5mC]*dT*dG*d[5mC]*d[5mC]*dA*dT*dG*dT*dT*kG*kT*kT; antisense) [Compound 715425] ) is 98

# YAP1 (% UTC) (substance: 715416 (k[5mC]*kT*k[5mC]*dG*dA*dA*d[5mC]*dA*dT*dG*d[5mC]*dT*dG*kT*kG*kG; antisense) [Compound 715416] ) is 53
